System: T-47D breast
Assay: NCI tumour cell line growth inhibition, 48 h
Reported TGI by item:

compound="CC(C)CC(N)C(=O)NC(C(=O)NC(CCCNC(=N)N)C(=O)NC(CS)C(=O)NC1CSCC(C(=O)NC(Cc2ccccc2)C(=O)NC(C(=O)NC(CCCNC(=N)N)C(=O)O)C(C)C)NC(=O)C2CCCN2C(=O)C(CCCCN)NC(=O)C2CCCN2C(=O)C2CCCN2C(=O)C(Cc2ccc(O)cc2)NC(=O)C(CO)NC(=O)C(CCCCN)NC(=O)C(C(C)O)NC(=O)C(Cc2c[nH]c3ccccc23)NC1=O)C(C)C (stereo not given)" value_reported="> 25 µM"
compound=CN(N=O)c1nc2c(C(N)=O)ncn2s1 value_reported="> 100 µM"
compound=COC(=O)C(=O)Nc1cc2c3c(c1)Oc1cccc4c1C3(C)c1c(cccc1O2)O4 value_reported="> 100 µM"
compound=CCc1n[nH]c(=O)n1/N=C(\C)c1ccccc1 value_reported="> 100 µM"
compound=CN1CC[C@H](c2c(O)cc(O)c3c(=O)cc(-c4ccccc4Cl)oc23)[C@H](O)C1 value_reported="> 2.84 µM"
compound=CC(C)OP(=O)(O)c1ncc(-c2ccc(C(F)(F)F)cc2)c(NC2CCCCCC2)n1 value_reported="> 100 µM"

Quick check: TGI of CCOC(=O)c1c(CN2CCN(C)CC2)nc2ccc(Cl)cc2c1-c1ccccc1 ?
24.4 µM

Let us now turn to CC(C)(C)OC(=O)CCCCCNC(=O)CCCCCNC(=O)CCC(CN(CC(=O)OCc1ccccc1)CC(=O)OCc1ccccc1)N(CC(=O)OCc1ccccc1)CC(=O)OCc1ccccc1 (stereo not given)
> 100 µM

Let us now turn to COc1cc(N(C)C)c(OC)cc1C=C1C=CC=C1
> 100 µM

Let us now turn to O=NNc1ccc(S(=O)(=O)c2ccc3ccccc3c2)cn1
> 100 µM

----------
Reported TGI by item:
System: IGROV1 ovarian
Test: NCI tumour cell line growth inhibition, 48 h
Record the value in µM, omitting the unit from your answer.

Consider the following illustrative entries.
compound=COC(=O)c1c(O)ccc2c1c1c(n2Cc2cc(OC)cc(OC)c2)C(=O)c2ccccc2C1=O units_text=µM value_reported=22
compound=Nn1c(-c2ccc(Cl)cc2)nc2c(-c3ccc(Cl)cc3)nc3ccc(Cl)cc3c2c1=O units_text=µM value_reported=32.8
compound=CCOc1ccc2cc(-c3nn(CC4CCNCC4)c4ncnc(N)c34)ccc2c1 units_text=µM value_reported=27.8
compound=O=C1Nc2ccc3c(c2/C1=C\c1cc2c(cc1Br)OCO2)OCO3 units_text=µM value_reported=1.7
compound=CC(C)(C)O/N=C/c1cc(NC(=S)c2ccsc2)ccc1Cl units_text=µM value_reported=34.9

Form entry - test system: IGROV1 ovarian; read-out: TGI; compound: O=C(NCCNCCNC(=O)c1cc(-c2ccccc2)nc2ccccc12)c1cc(-c2ccccc2)nc2ccccc12
7.25

Let us now turn to Cc1cc(C)nc(NS(=O)(=O)c2ccc(Nc3c4ccccc4nc4c(C(=O)NCCN(C)C)cccc34)cc2)n1
16.4

Let us now turn to CCOC(=O)c1c(NC(=O)c2ccc(Cl)cc2)sc2c(CN(C)C)c(O)ccc12
31.7

----------
Tested on: BT-549 breast
Experiment: NCI tumour cell line growth inhibition, 48 h
Reported TGI by item:

compound=COC(=O)[C@@](NC(=O)OCc1ccccc1)([C@H](C)O)C(F)(F)F experimental_target="BT-549 breast" value_reported="> 100 µM"

Form entry - test system: BT-549 breast; read-out: TGI; compound: C=C1C[C@@H]2O[C@H]3[C@H]4[C@@H](CC[C@@](C)(OC(=O)CCC)[C@H]42)[C@@H](C)C(=O)O[C@@]3(C)CC[C@H]1OO
> 100 µM

Let us now turn to COCC(C(=O)OC1C/C=C/C=C/C(=O)OC(C(C)C(O)C(C)CCC(OC(=O)C(C)N(C)C)C(C)C(OC(C)=O)C(C)/C=C/N(C)C=O)C/C=C/C(OC)CC(C)C/C=C(\C)C(OC)CCC(C)C(O)C1C)N(C)C (stereo not drawn)
0.0915 µM

----------
Test system: LOX IMVI melanoma
Assay: NCI tumour cell line growth inhibition, 48 h
Quantity name: TGI

Consider the following illustrative entries.
compound="O=C1NCN(c2ccccc2)C12CCN(CC1COc3ccccc3O1)CC2 (stereo unspecified)" value_reported="> 100 µM"
compound=COc1ccc(/C=C/C(=O)c2cc3c(N)c(C(=O)Nc4ccc(OC)cc4)sc3nc2C)cc1 value_reported="11.3 µM"
compound=COc1cc(OC)c2c(=O)c3cccc([N+](=O)[O-])c3n(C)c2c1 value_reported="> 100 µM"
compound=CC(C)(O)c1cc2c(cc1C(C)(C)O)-c1ccccc1-2 value_reported="> 100 µM"

Kindly consider the entry below.
Quick check: TGI of Cc1c(-c2ccccc2)[nH]c2cn[nH]c(=O)c12 ?
> 100 µM

----------
Reported TGI by item:
System: HL-60(TB) leukemia
Assay: NCI tumour cell line growth inhibition, 48 h
Record the value in µM, omitting the unit from your answer.

Consider the following illustrative entries.
compound=COc1cc(/C=C2\SC(N3CCCCC3)=NC2=O)ccc1OCCCCCCOc1ccc(/C=C2\SC(N3CCCCC3)=NC2=O)cc1OC quantity_name=TGI value_reported=84.4
compound=CC[C@H]1OC(=O)[C@H](C)[C@@H](O[C@H]2C[C@@](C)(OC)[C@@H](O)[C@H](C)O2)[C@H](C)[C@@H](O[C@@H]2O[C@H](C)C[C@H](N(C)C)[C@H]2O)[C@](C)(OC)C/C(C)=C2/O[C@@]1(C)C=C2C quantity_name=TGI value_reported=4.16
compound=O=C1c2c(Br)sc(Br)c2[C@@H](O)[C@H]1O quantity_name=TGI value_reported=28.6
compound="CCCCCC[C@H]1C(=O)O[C@H](C)[C@H](NC(=O)c2cccc(NC=O)c2OC)C(=O)O[C@@H](C)[C@@H]1OC(=O)CCC (tested in a mixture with another compound)" quantity_name=TGI value_reported=19.9

Kindly consider the entry below.
Quick check: TGI of COc1ccc(-c2c(N)noc2-c2cc(OC)c3c(c2)OCCO3)cc1 ?
0.0434

----------
Reported TGI by item:
Tested on: MOLT-4 leukemia
Experiment: NCI tumour cell line growth inhibition, 48 h

Consider the following illustrative entries.
compound=Cc1ccc(C(=O)Oc2ccccc2)cc1N=NN(C)C experimental_target="MOLT-4 leukemia" value_reported="> 100 µM"
compound=COc1ccc2nc3ccc(OC)cc3c(SCCCl)c2c1 experimental_target="MOLT-4 leukemia" value_reported="16.4 µM"
compound="CCOC(=O)c1c[nH]c(C(=O)C=[N+]=[N-])c1C1CCN(CC)C1=S (stereo unspecified)" experimental_target="MOLT-4 leukemia" value_reported="> 100 µM"

Quick check: TGI of O=C(Cn1c2ccc(Br)cc2c2nc3ccccc3nc21)Nc1ccccc1 ?
> 100 µM

Let us now turn to COc1cc(C2S/C(=C/c3ccccc3)C(=O)N2c2cccc(NC(C)=O)c2)cc(OC)c1OC (stereo unspecified)
> 100 µM

----------
Tested on: SNB-19 CNS
Experiment: NCI tumour cell line growth inhibition, 48 h
Quantity name: TGI

cpd_smiles=NC(=O)/C(=C/n1cnc(-c2cc(C(F)(F)F)cc(C(F)(F)F)c2)n1)c1cncnc1 value_reported="15 µM"
cpd_smiles=O=C1OC(=O)C([Se]c2ccccc2)=C1[Se]c1ccccc1 value_reported="> 100 µM"

Form entry - test system: SNB-19 CNS; read-out: TGI; compound: CCCc1nc2c(n1CC)C(=O)c1ccccc1C2=O
> 100 µM

Let us now turn to Cc1ccc(-c2cc(-c3ccc(Cl)cc3)nc(/N=C3\C(=O)N(CN(C)C)c4ccccc43)n2)cc1
> 100 µM

----------
Tested on: UO-31 renal
Assay: NCI tumour cell line growth inhibition, 48 h
Quantity name: TGI

molecule=O=C(NCCNCCNC(=O)c1cc(-c2ccccc2)nc2ccccc12)c1cc(-c2ccccc2)nc2ccccc12 experimental_target="UO-31 renal" value_reported="6.94 µM"
molecule=CCOc1ccc(NC(=O)C(=O)Nn2c(N)nnc2N)cc1 experimental_target="UO-31 renal" value_reported="> 100 µM"
molecule="CCOC(=O)c1c[nH]c(C(=O)C=[N+]=[N-])c1C1CCN(CC)C1=S (stereo not given)" experimental_target="UO-31 renal" value_reported="> 100 µM"
molecule=CCCc1cc(OC(=O)c2c(O)cc(OC)cc2CCC)cc(O)c1C(=O)O experimental_target="UO-31 renal" value_reported="35.9 µM"
molecule=CCOc1nc2c(N3CCCC3)nc(N3CCNCC3)nc2nc1NCc1ccccc1 experimental_target="UO-31 renal" value_reported="2.6 µM"

Quick check: TGI of Nc1ncc2ncn(C3CCC(CO)O3)c2n1 (stereo not given) ?
> 100 µM

Let us now turn to COc1ccc(-c2nc(-c3cnccn3)n(C3OC(CO)C(O)C3O)n2)cc1 (stereo not given)
> 10 µM
